Test: solvent given as SMILES
Settings: in CC#N
test-readout: log10 fluorescence lifetime (log10 of the value in ns)
Units before log transform: ns; reported quantity: fluorescence lifetime; transform: log10.

# count of solved cases: 5
molecule	log10 fluorescence lifetime
CN(C)c1ccc2c(c1)-c1ccccc1C2=O	0.68
CC1=CC(C)=[N+]2C1=C(c1ccccc1)c1c(C)cc(C)n1[B-]2(F)F	0.58
N#Cc1ccc2[nH]ccc2c1	0.64
Oc1ccc2ccc(C3(O)C4CC5CC(C4)CC3C5)cc2c1 (stereo not drawn)	0.89
COc1ccc2cc(/C=C/c3ccccc3)c(=O)oc2c1	0.44

Dear reader, for each entry below, please note its log10 fluorescence lifetime.
1. Cc1ccc2c(nc3c(=O)n(C)c(=O)nc-3n2C)c1C
2. COc1ccc2cc([C@H](C)C(=O)O)ccc2c1
3. C=C[C@]12CC[C@H](CC1)N=N2

Result:
0.59
1.00
-0.25

----------
Assay: solvent given as SMILES
Conditions: in Cc1ccccc1
test-readout: fluorescence lifetime (ns)
Give bare numbers, in ns.

# count of solved cases: 3
compound	fluorescence lifetime, ns
CC(=O)O[B-]1(OC(C)=O)OC(/C=C/C=C/c2ccccc2)=CC(/C=C/C=C/c2ccccc2)=[O+]1	2.57
CC(C)(C)c1ccc2c(c1)c1cc(C(C)(C)C)ccc1n2-c1cccc2c1Oc1c(-c3nc(-c4ccccc4)nc(-c4ccccc4)n3)cccc1C2(C)C	4
CC(C)(C)c1ccc2c(c1)[nH]c1c3[nH]c4cc(C(C)(C)C)ccc4c3c3nsnc3c21	1.5

Dear reader, for each entry below, please note its fluorescence lifetime.
1. c1cc2c3c(c1)-c1ccc4c5c(ccc(c15)B3c1ccc3c5c(ccc-2c15)CC3)CC4
2. N#Cc1cccc2ccccc12
3. BrCCCCCCCCCCCCOc1cc2ccc3cccc4ccc(c1)c2c34
4. CSc1nc(-c2ccc(-n3c4ccccc4c4ccccc43)cc2)cc(-c2ccc(-n3c4ccccc4c4ccccc43)cc2)n1
5. Cc1c2oc3c(C)c(N)cc(C(=O)NC4OC(=O)C(C(C)C)N(C)C(=O)CN(C)C(=O)C5CCCN5C(=O)C(C(C)C)NC4=O)c3nc-2c(C(=O)NC2OC(=O)C(C(C)C)N(C)C(=O)CN(C)C(=O)C3CCCN3C(=O)C(C(C)C)NC2=O)c(N)c1=O (stereo not drawn)
6. O=S(=O)(c1ccc(N2c3ccccc3N(c3ccccc3)c3ccccc32)cc1)c1ccc(N2c3ccccc3N(c3ccccc3)c3ccccc32)cc1

Result:
1: 5.28; 2: 12.8; 3: 60; 4: 1.45; 5: 1.23; 6: 5.6

Dear reader, for each entry below, please note its fluorescence lifetime.
1. COC(=O)C(Cc1ccc2oc(-c3ccc(N(C)C)cc3)nc2c1)NC(=O)OC(C)(C)C (stereo not drawn)
2. CCN(CC)c1ccc(OC)c(C=O)c1
3. O=C1c2ccccc2-c2cnccc21
4. Cc1cc(C)c(B(c2ccc(-c3cc4ccc5cccc6ccc(c3)c4c56)cc2)c2c(C)cc(C)cc2C)c(C)c1

Result:
[1.04, 12.5, 2.2, 65]

Dear reader, for each entry below, please note its fluorescence lifetime.
1. Cc1cc(-c2ccc(-n3c4ccccc4c4ccccc43)cc2)nc(-c2ccc(-c3ccccc3)cc2)n1
2. c1cc2c3c(c1)-c1cccc4cccc(c14)B3c1cccc3cccc-2c13
3. CCN(CC)c1cccc(C=O)c1
4. N#Cc1c(-n2c3ccccc3c3cc(I)ccc32)c(C#N)c(-n2c3ccccc3c3cc(I)ccc32)c(-n2c3ccccc3c3cc(I)ccc32)c1-n1c2ccccc2c2cc(I)ccc21
5. CCN(CC)c1ccc(/C=C/c2ccc(-c3ccc(/C=C/c4ccc(N(CC)CC)cc4)s3)s2)cc1
6. CCn1c2ccsc2c2c3nsnc3c3c4sccc4n(CC)c3c21
7. COc1ccc(-c2c3ccc([nH]3)c3nc(c(-c4ccc(C#N)cc4)c4ccc([nH]4)c4ccc([nH]4)c(-c4ccc(OC)cc4)c4ccc2o4)C=C3)cc1

Result:
1. 2.27
2. 6.31
3. 16.2
4. 0.4
5. 1.02
6. 19.4
7. 5.65
